# System: Alternaria solani
# test: In vivo preventive test on Alternaria solani (tomato)
# experimental_conditions: 500 ppm of active ingredient, evaluated 7 days after inoculation
# Description: In Vivo Preventive Test on Alternaria solani (Tomato) • Solvent: 49 parts by weight of N,N-dimethylformamide • Emulsifier: 1 part by weight of alkylarylpolyglycolether To produce a suitable preparation of active compound, 1 part by weight of active compound is mixed with the stated amounts of solvent and emulsifier, and the concentrate is diluted with water to the desired concentration. […] The test is evaluated 7 days after the inoculation. […]
measurement_kind: Efficacy (%)
Enter your answer as a number in %; do not include the unit.

Look over these answered cases.
Record Cn1cc(C(=O)N2CCCC2C23CC4CC(CC(C4)C2)C3)c(C(F)F)n1 (centres unmarked) [Example 12] has Alternaria solani Efficacy equal to 94

Noted Efficacy for CCCCOCCC1CCCCN1C(=O)c1c(C(F)F)nn(C)c1Cl (centres unmarked) [Example 31] , tested on Alternaria solani: 89

Measured Efficacy for this entry CCCCOCCC1CCCCN1C(=O)c1c(C(F)F)nn(C)c1F (centres unmarked) [Example 32] on Alternaria solani: 94

Measured Efficacy (Alternaria solani), entry Cn1nc(C(F)F)c(C(=O)N2CCCC2C23CC4CC(CC(C4)C2)C3)c1F (centres unmarked) [Example 14] : 94

Would you kindly look at the next entry?
Observed Efficacy, Alternaria solani, Cn1nc(C(F)F)c(C(=O)N2CCCC2C2CCCCC2)c1F (centres unmarked) [Example 11] : 94

###

Listed next: entries and their corresponding logP.
# test: log P by HPLC on reversed-phase column (C 18), EEC Directive 79/831 Annex V.A8
# Format: physicochemical
# experimental_conditions: 40° C., 0.1% aqueous formic acid and acetonitrile
Just the number.

# annotated cases, reported logP shown
What the record says about Cn1nc(C(F)F)c(C(=O)N2CCCCC2CCOCC2CCC2)c1F (stereo not shown) [Example 37] : logP is 3.33

logP in this record for Cn1nc(C(F)F)c(C(=O)N2CCCC2CC2CC3CCC2C3)c1Cl (stereo not shown) [Example 50] : 3.99

Value of measured logP for the entry Cn1nc(C(F)F)c(C(=O)N2CCCCC2C2CCCCC2)c1Cl (stereo not shown) [Example 23] : 3.85

Form field logP, entry Cn1nc(C(F)F)c(C(=O)N2CCCCC2CCOCC2CCC2)c1Cl (stereo not shown) [Example 36] : 3.51

For CCCCOCCC1CCCCN1C(=O)c1c(C(F)F)nn(C)c1Cl (stereo not shown) [Example 31] the molecule record lists logP as 3.35

More entries:
// logP lookup, molecule = CCCCCCC1CCCCN1C(=O)c1c(C(F)F)nn(C)c1Cl (stereo not shown) [Example 21] , result: 4.39

So for Cn1nc(C(F)F)c(C(=O)N2CCCC2C(F)(F)F)c1F (stereo not shown) [Example 2] , the logged logP turned out to be 2.25

Given item Cn1cc(C(=O)N2CCCCC2CCOCCC2CCCCC2)c(C(F)F)n1 (stereo not shown) [Example 42] , the value recorded as its logP is 4.23

Recorded logP (molecule Cn1cc(C(=O)N2CCCC2CC2CC3CCC2C3)c(C(F)F)n1 (stereo not shown) [Example 49] ): 3.44

Please fill in: logP reported for CCCCCCC1CCCN1C(=O)c1c(C(F)F)nn(C)c1Cl (stereo not shown) [Example 7] = 3.94
